Molecular target: GPR139 (Homo sapiens, UniProt Q6DWJ6)
Sequence (Q6DWJ6 1-353): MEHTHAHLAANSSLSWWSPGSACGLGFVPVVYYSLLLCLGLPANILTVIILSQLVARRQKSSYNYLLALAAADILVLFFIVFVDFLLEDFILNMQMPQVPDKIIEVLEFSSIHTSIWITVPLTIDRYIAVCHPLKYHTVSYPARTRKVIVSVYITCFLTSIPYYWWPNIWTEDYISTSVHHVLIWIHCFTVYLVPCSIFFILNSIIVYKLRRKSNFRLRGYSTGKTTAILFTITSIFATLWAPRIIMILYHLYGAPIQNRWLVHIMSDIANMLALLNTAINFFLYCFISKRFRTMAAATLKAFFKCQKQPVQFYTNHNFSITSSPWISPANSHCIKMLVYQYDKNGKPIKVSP
Assay: GPR139 Agonist titration / agonist counterscreen assay (calcium detection, HEK-GPR139 cells)
Type: cell-based
Design: expressed in transfected cells; host or cells: HEK Aequorin cells, Maxcyte transient transfection
Conditions: GPR139 Agonist Activity; based on logP
Quick rule for you: Lipophilic Efficiency (logP) at 5 or higher means class 1, lower means class 0.

Cc1cc(C(=O)CCC(=O)NNC(=O)CSc2nc3ccccc3s2)c(C)s1    class 0
Cc1cccnc1NC(=O)Cn1ncc2c1-c1ccccc1OC2    class 0
COc1cccc(C(=O)NNC(=O)CCCOc2ccc(Cl)cc2Cl)c1    class 1
Cc1ccc(SCC(=O)Nc2nnc(-c3ccco3)o2)cc1    class 0
CC(C)C1CC(=O)[C@@H]2C[C@@H](CC2C(=O)CC2CCOc3ccccc3C2)C2C=CC(=C2)CCC(=O)[C@@H](Cc2ccccc2)NC1=O (some centres unmarked)    class 1
COc1ccc(CCNC(=O)Nc2ccc(C)cc2)cc1    class 0
Cc1ccccc1NC(=O)CSC1=C(C#N)C(c2ccccc2C(F)(F)F)C2=C(CCCC2=O)N1 (centres unmarked)    class 0
Cc1ccc(CN2CCN(CC(=O)N3CC(C)CC(C)C3)C2=O)cc1 (centres unmarked)    class 0
COc1ccc(C2(C)NC(=O)N(CC(=O)NCc3ccc(F)cc3)C2=O)cc1 (centres unmarked)    class 1
CCCc1ccccc1C1=CCC(NC(=O)Cn2ncc3c2-c2ccccc2CC3)=C1    class 0
C=C(CCc1cccc(CC)c1)C(C)C1CCC(Cc2ccccc2C)C1=C (centres unmarked)    class 1
O=C(Cn1cnc2ccccc21)NCCCn1ccc2ccccc21    class 0
COc1ccc(C(C)N2CC34C=CC(O3)C(C(=O)OCC(C)C)C4C2=O)cc1 (centres unmarked)    class 0
CCOc1ccc(C(=O)NCCc2ccc(F)cc2)cc1OCC    class 0
CC(Oc1ccc(Cl)cc1Cl)C(=O)NNC(=O)COc1ccccc1 (centres unmarked)    class 0
CC12C=CC3(CN(Cc4ccccc4)C(=O)C3C1C(=O)NCc1ccco1)O2 (centres unmarked)    class 1
CC1C(CC(=O)NCC(=O)CCC2=Cc3ccccc3C2)=Nc2ccccc21 (centres unmarked)    class 0
O=C(CN1C(=O)NC2(CCCc3ccccc32)C1=O)N1CCCCCC1 (centres unmarked)    class 0
O=C(CN1CCCc2ccccc21)NNC(=O)Nc1ccc(Cl)c(Cl)c1    class 0
COc1ccc(CCNC(=O)c2cnc(N3CCCC3CO)s2)cc1 (centres unmarked)    class 1
COc1ccccc1NC(=O)NNC(=O)CN1C(=O)COc2ccccc21    class 1

====

tested on: parental HEK cells; assay: HEK parental Agonist Counterscreen Assay (non-transfected cells); format: cell-based; settings: HEK Agonist Activity
Listed below: Lipophilic Efficiency (logD) values for each entry.
REPORTED METRIC: Lipophilic Efficiency (logD)

CC(NC(=O)Cn1ncc2c(Cl)cccc21)c1ccc2c(c1)OCCO2 (centres unmarked)    2.28
O=C(Cn1nnc(-c2ccccc2)n1)NNC(=O)Cn1c(C(F)(F)F)nc2ccccc21    1.86
COc1cc(C(C)=O)ccc1OCC(=O)NC(C)CCc1ccccc1 (centres unmarked)    1.86
Cc1onc(-c2ccccc2Cl)c1C(=O)NNC(=O)CSc1ccccc1[N+](=O)[O-]    1.49
O=C(NNC(=O)C1CC1c1ccccc1)Nc1cccc(Cl)c1 (centres unmarked)    1.76
O=C(CCC(=O)c1ccco1)NNC(=O)CN1CCCc2ccccc21    2.68
CC(C)(C)CN1CCNC(=O)C1CC(=O)NCCc1cnn(-c2ccccc2)c1 (centres unmarked)    3.12
COc1cc(-c2nnc(COc3ccc(Cl)cc3C)o2)cc(OC)c1OC    1.65

====

Listed below: Lipophilic Efficiency (logP) values for each entry.
tested on: parental HEK cells; experiment: HEK parental Agonist Counterscreen Assay (non-transfected cells); type: cell-based; settings: HEK Agonist Activity section
REPORTED METRIC: Lipophilic Efficiency (logP)

CNc1ccc(CCNC(=O)Cn2c3ccccc3c3nc(=O)cc(C)n32)cc1 [SR-01000139601]    2.04
CC12C=CC3(CN(Cc4ccccc4)C(=O)C3C1C(=O)NCC1COc3ccccc3O1)O2 (stereo not shown) [SR-01000582967]    2.93
COc1ccc(C(=O)NNC(=O)COc2ccc(Cl)cc2Cl)cc1OC [SR-01000357814]    2.21
O=C(Cn1ccc2ccccc21)NCCCC(=O)Nc1cccc2cccnc12 [SR-01000926510]    2.07
COc1ccc2c(c1)C[C@H](C(=O)Nc1ccc(-c3cn[nH]c3)cc1OCC1CNC1)NC2.O=C(O)C(F)(F)F.O=C(O)C(F)(F)F.O=C(O)C(F)(F)F [SR-00000006698]    3.11
O=C(CCOc1ccccc1)NCC1COc2ccccc2O1 (stereo not shown) [SR-01000479007]    2.56
Cc1cccc(C(=O)NNC(=O)CCc2ccccc2)c1 [SR-01000513008]    1.74
CC(Oc1ccc(Cl)cc1Cl)C(=O)NNC(=O)c1ccncc1 (stereo not shown) [SR-01000319951]    2.54
Cc1ccc(CN2CCCN(CC(=O)NC3CCCCCCC3)C2=O)c(Cl)c1 [SR-01000146444]    1.38
Cc1ccc(Nc2cn[nH]c(=S)n2)c(C)c1 [SR-01000013346]    1.95
O=C(CC(C(=O)N1CCc2ccccc21)n1ccnc1)N1CCCCCC1 (stereo not shown) [SR-01000144627]    3.09
CC1C(CC(=O)NCC(=O)CCC2=Cc3ccccc3C2)=Nc2ccccc21 (stereo not shown) [SR-01000068608]    2.46
COc1ccc(SCC(=O)NNC(=S)Nc2ccccc2)cc1 [SR-01000526835]    1.85
O=C(NCc1csc(-c2cccs2)n1)C1CC(Cc2ccc3c(c2)OCO3)=NO1 (stereo not shown) [SR-01000187428]    1.59
CC(C)(C)n1c2c(c(=O)[nH]c1=O)C(NC(=O)CCC1CCCCC1)(C(F)(F)F)C(=O)N2 (stereo not shown) [SR-01000091502]    2.59
CCN(CCCNC(=O)CN1CCC(Cc2ccccc2C)C1=O)c1cccc(C)c1 (stereo not shown) [SR-01000150393]    1.43
Cc1ccccc1-c1nnc(CN2CCc3ccccc3C2)o1 [SR-01000162178]    1.58
O=C(Cc1ccccc1)CC1C=CC2=C1c1ccccc1CC2 (stereo not shown) [SR-01000134941]    2.40
COc1ccc(CCNC(=O)Nc2ccc(C)cc2)cc1 [SR-01000271555]    1.38
Cc1ccc(CCC(=O)NNC(=O)CCc2ccccc2)c(Br)c1 [SR-01000313193]    1.39
COc1cccc(COC(=O)NC(C)C2COc3ccccc3O2)c1 (stereo not shown) [SR-01000362527]    1.68
COc1ccc(CC(=O)NNC(=O)C(C)Oc2ccc(Cl)cc2Cl)cc1 (stereo not shown) [SR-01000361779]    1.50

====

Molecular target: GPR139 (Homo sapiens, UniProt Q6DWJ6)
Sequence (Q6DWJ6 1-353): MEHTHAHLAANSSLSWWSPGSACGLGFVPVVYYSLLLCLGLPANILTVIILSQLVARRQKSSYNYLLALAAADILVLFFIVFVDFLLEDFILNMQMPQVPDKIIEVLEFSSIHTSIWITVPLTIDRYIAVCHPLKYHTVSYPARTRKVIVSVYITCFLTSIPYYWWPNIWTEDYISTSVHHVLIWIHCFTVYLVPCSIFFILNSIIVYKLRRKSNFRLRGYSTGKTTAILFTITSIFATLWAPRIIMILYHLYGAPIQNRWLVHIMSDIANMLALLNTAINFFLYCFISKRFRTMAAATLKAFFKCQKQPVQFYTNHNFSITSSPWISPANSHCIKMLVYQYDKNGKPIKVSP
Experiment: GPR139 Agonist titration / agonist counterscreen assay (calcium detection, HEK-GPR139 cells)
Format: cell-based
Set-up: expressed in transfected cells; host or cells: HEK Aequorin cells, Maxcyte transient transfection
Settings: GPR139 Agonist Activity
Experimental: GPR activity was assessed using a calcium detection assay. […] Negative control samples were treated with DMSO. […] Intracellular calcium was measured using Calcium 5.
Criterion: Lipophilic Efficiency (logP) strictly under 3. Met: T. Not met: F.

Cc1ccc(CN2CCN(CC(=O)NCCc3ccc(Cl)cc3)C2=O)c(Cl)c1 [SR-01000125626]    T
Cc1ccccc1-c1nnc(CN2CCc3ccccc3C2)o1 [SR-01000162178]    F
Cl.Cl.Nc1[nH]ncc1-c1ccc(NC(=O)[C@H](N)Cc2cccc(F)c2)cc1 [SR-00000004378]    F
C#CC1=C(CCCc2ccc(CC)cc2)CC(CCc2ccccc2CC)=C1 [SR-01000363853]    T
COc1cc(C(=O)NNC(=O)COc2ccc3ccccc3c2)cc(OC)c1OC [SR-01000056004]    F
O=C(CN1CC(=O)N(Cc2ccc(O)cc2)C(c2ccccc2Cl)C1=O)NCc1ccco1 (stereo not shown) [SR-01000583711]    F
CCOC(=O)C1C2C=CC3(CN(C(C)c4ccc(Br)cc4)C(=O)C13)O2 (stereo not shown) [SR-01000114492]    F
N#Cc1ccc(OC(=O)COc2cccc3ccccc23)cc1 [SR-01000005203]    T
COc1ccc2c(CC(=O)NNC(=O)c3cc(-c4ccccc4)no3)coc2c1 [SR-01000074979]    F
CCCC1(CCC)NC(=O)N(CC(=O)NCc2ccc(Cl)cc2)C1=O [SR-01000050884]    F
COc1ccc(CCn2nc(-c3cccnc3)[nH]c2=O)cc1 [SR-01000335115]    F
C=C1N=C(NC2CCCCCC2)c2ccccc2N1 [SR-01000565308]    T
O=C(Cn1nc(Cc2ccncc2)c2ccccc2c1=O)N1CCCc2ccccc21 [SR-01000151917]    F

Sourced from patent US20250099420A1
